# System: NCI/ADR-RES ovarian
# TEST NAME: NCI tumour cell line growth inhibition, 48 h
PARAMETER MEASURED: log10(TGI) (log10 of the value in µM)
// units: µM (pre-log); metric: TGI; scale: log10

The recorded log10(TGI) for `COc1ccc2[nH]c(=O)c3c4ccccc4cn3c2c1` is 0.11

Form: compound = `CC(C)[C@]12O[C@H]1[C@@H]1O[C@]13[C@]1(O[C@H]1C[C@H]1C4=C(CC[C@@]13C)C(=O)OC4)[C@@H]2O` ; log10(TGI) = -1.04

Field log10(TGI) (entry `O=C[C@@H](CO)O[C@H](C=O)c1c[nH]c(=O)[nH]c1=O` ) reads 2.73

Briefly, log10(TGI) measured for `O=c1c2cc(-c3ccccc3)sc2nc2n1N=C(c1ccccc1)CS2` : 1.76

The reported value for COc1ccc(/C=C2\CCCC(CN(C)C)C2=O)cc1 (stereo unspecified) in terms of log10(TGI) is 0.82

Documented log10(TGI) of `COc1cc2c(/C=C3/C(=O)N(C)c4ccccc43)c(Cl)[nH]c2cc1C` : 0.43

The reported log10(TGI) of the compound `CCN(CC)CCOCC[C@H]1CC[C@H]2[C@@H]3[C@H](C)Cc4cc(OS(N)(=O)=O)ccc4[C@H]3CC[C@]12C` was 0.59

Memo: `CCCCCCCCCCCCNC(C)=O` , reported log10(TGI): 1.52

Lab book: log10(TGI) of `O=C(O)c1cc2ccccc2c(N=Nc2ccccc2)c1O` noted as 1.96

Lab note: O=C1/C(=C/c2ccccc2)CCCC1CN1CCCCC1 (stereo unspecified) gave log10(TGI) of 1.11

Record `C=C1C(=O)O[C@H]2[C@H]1CC/C(CNC(=O)Cc1c[nH]c3ccccc13)=C\CC[C@@]1(C)O[C@@H]21` , field log10(TGI): 1.82

// recorded log10(TGI) for `COc1ccc(Oc2cccc(/C=C3/C(=O)Nc4ccccc43)c2)cc1` : 1.25

Entry under test: `Cc1ccc2c3c1O[C@H]1c4[nH]c5ccccc5c4C[C@@]4(O)[C@@H](C2)N(C)CC[C@]314` . Its log10(TGI) was 1.55

Measured log10(TGI), COc1ccc(C2CC(c3cc(OC)c(OC)c(OC)c3)=NO2)cc1OCCCCOc1cc2c(cc1OC)C(=O)N1CCC[C@H]1C=N2 (stereo partly specified) : 1.57

Recorded log10(TGI) (compound `O=C1c2ccccc2-c2c1c1ccccc1c(=O)n2CCCCNCCCn1c2c(c3ccccc3c1=O)C(=O)c1ccccc1-2` ): 0.24

Memo: `ClCCCN(CCCCl)c1ccc(C=Nc2cccc(Cl)c2)cc1` , reported log10(TGI): 1.72

----------
Record form. Attribute: TGI. Fill in for each entry.
# Tested on: HCT-116 colon
# TEST NAME: NCI tumour cell line growth inhibition, 48 h
Where a SMILES comes first, the peptide text is derived from it. The star is where a group is joined. Boc = CC(C)(C)OC(=O)*; Bz = O=C(c1ccccc1)*

Measured TGI of `CS(=O)(=O)c1ccc(/C=N/NC(N)=S)cc1` : > 100 µM

TGI reading for `FC(F)(F)Oc1cccc(-c2cnc3ccc(-c4ccncc4)nn23)c1` : > 100 µM

Just so you know, measured TGI for `COc1cc2c[n+](C)c3c4cc(OC)c(OC)cc4c(OC)cc3c2cc1OC` came out at > 43.6 µM

Per the records, this molecule ( CC(=O)OC12/C(=N/O)CCCCCC1c1ccccc12 (stereo unspecified) ) has TGI equal to > 100 µM

The molecule identified as `N#Cc1c(N2CCCC2)nsc1NCc1ccccc1` registered its TGI at > 100 µM

TGI in this record for N#Cc1ccccc1NC(=O)/C(=N\N)C(C(=O)c1ccncc1)C1OC(=O)c2ccccc21 (stereo unspecified) : > 100 µM

Looking up `O=C(O)CCNc1ccccc1C(=O)O` , I found its TGI recorded as > 100 µM

Record summary for `O=C(Nc1c(O)[nH]c(=S)[nH]c1=O)c1ccccc1F` : reported TGI = > 100 µM

Recorded TGI (molecule `COc1cccc2c1C(=O)C=CC2=O` ): 12.1 µM

So for `COc1cc2c(cc1O)CC[C@@H]1[C@@H]2CC[C@]2(C)[C@@H](NCCN(C)C)CC[C@@H]12` , the logged TGI turned out to be 0.522 µM

Per the record, COC(=O)C1=C(c2ccc(OC)c(OC)c2)OC(c2ccc(OC)c(OC)c2)C1 (stereo unspecified) has TGI of > 100 µM

Data point: `COc1ccc2oc(=O)cc(C(c3ccc[nH]3)c3ccc[nH]3)c2c1` ; TGI = 10.6 µM

Briefly, TGI measured for CC(NC(=O)C(Cc1ccc(OC(=O)c2ccccc2)cc1)NC(=O)OC(C)(C)C)C(=O)NC(Cc1ccccc1)C(=O)NCC(N)=O (stereo unspecified) (Boc-Y(Bz)AFG-NH2; configuration not given here) : 91.6 µM

Summary for this molecule, `Cc1c(NC(=S)NN)c(=O)n(-c2ccccc2)n1C` : TGI is > 100 µM

// field: TGI; key: CCOc1ccccc1NC(=O)CC1C(=O)Nc2ccccc2S1=O (stereo unspecified) ; value = > 100 µM

Per the record, `COc1ccc(C(=O)c2cc(OC)c(OC)c(OC)c2)cc1` has TGI of > 25.8 µM

So for `Cc1c2cc[n+](C)cc2c(C)c2c1sc1ccccc12` , the logged TGI turned out to be 23.7 µM

The reported TGI of the molecule `CC[C@]12CCCN3CCc4c(n(c5ccccc45)C(=O)C1)[C@@H]32` was > 49.6 µM

Recorded result, `Cc1c2c(c(C)n1-c1ccccc1)C(=O)N(CCCCN1CCN(c3ccccc3)CC1)C2=O` , TGI: 20.9 µM

TGI measured on COc1ccc(C2CC(c3cc(OC)c(OC)c(OC)c3)=NO2)cc1OCCCCOc1cc2c(cc1OC)C(=O)N1CCC[C@H]1C=N2 (stereo partly specified) = 3.89 µM

TGI recorded for this molecule, `N=C(N)c1ccc(OCc2cccc(COc3ccc(C(=N)N)cc3)c2)cc1` , is 16.9 µM

----------
Kindly state TGI for each of the entries shown.
# System: A549 NSCLC
# TEST NAME: NCI tumour cell line growth inhibition, 48 h

Entry under test: `C/C(CC/C(C)=N/O)=N\O` . Its TGI was > 100 µM

Entry `COc1ccccc1/C=C(\C#N)c1ccccc1` ; TGI = > 100 µM

According to the records, this molecule `Cc1c2cc[n+](C)cc2c(C)c2c1sc1ccccc12` displays TGI of 3.46 µM

Lab note: `Nc1c(C(=O)c2cccc(CCCN3CCOCC3)c2)cnn1-c1ccc(F)cc1` gave TGI of > 25 µM

Entry `O=C1c2c(Cl)c(Cl)c(Cl)c(Cl)c2C(=O)N1CCN(c1c(Cl)ssc1=O)c1c(Cl)ssc1=O` ; TGI = > 100 µM

For reference, reported TGI for `Cn1cc(-c2ccc3c(Nc4cccc(NC(=O)Nc5cccc(F)c5)c4)ncnc3c2)cn1` stands at 17.9 µM

The recorded TGI for `COc1cccc2c1C(=O)C=CC2=O` is 40.4 µM

TGI reading for `CC(=O)ON(C(C)=O)c1ccc(-c2nc3ccccc3s2)cc1` : > 79 µM

Value of TGI reported for the molecule CCC(C#N)(c1ccccc1)N(CCc1ccccc1)C(=O)c1ccccc1 (stereo unspecified) is > 100 µM

Per the record, `FC(F)(F)Oc1cccc(-c2cnc3ccc(-c4ccncc4)nn23)c1` has TGI of 9.22 µM

Record CN1N=CSC12C(=O)N(c1ccc(Cl)cc1)C(=O)N2c1ccc(Cl)cc1 (stereo unspecified) , field TGI: > 100 µM

----------
Provide the recorded TGI for the entries that follow.
# System: SK-MEL-28 melanoma
# TEST NAME: NCI tumour cell line growth inhibition, 48 h
Respond with the bare value in µM.

Data point: `N=C(N)c1ccc(OCc2cccc(COc3ccc(C(=N)N)cc3)c2)cc1` ; TGI = 29.1

In plain terms, `O=C1c2ccccc2-c2c1c1ccccc1c(=O)n2CCCCNCCCn1c2c(c3ccccc3c1=O)C(=O)c1ccccc1-2` has a documented TGI of 34.8

----------
# System: NCI-H522 lung
# TEST NAME: NCI tumour cell line growth inhibition, 48 h
PARAMETER MEASURED: TGI
State the value, then name its unit.

Query `C=C(CN(C)C)C(=O)c1ccccc1C` yields TGI of 12.3 µM

The measured TGI associated with `COc1ccc2oc(=O)cc(C(c3ccc[nH]3)c3ccc[nH]3)c2c1` reads 5.88 µM

The molecule listed as CC1CC[C@]2(C(=O)O)CCC3(COC(=O)/C=C\c4ccc(O)cc4)C(=CCC4[C@@]5(C)CC[C@H](O)C(C)(C)C5CC[C@]43C)[C@@H]2[C@H]1C (some centres undefined) has a reported TGI of 44.6 µM

// COC1=C2CC(C)CC(OC)C(O)C(C)/C=C(\C)C(OC(N)=O)C(OC)/C=C\C=C(/C)C(=O)NC(=C(C=NC(C)(C)C)C1=O)C2=O (centres undefined) : TGI value = 1.63 µM
